Where these numbers come from: patent US6552012B2

Biological target: nAChR formed by the α7 subunit isoform (Rattus norvegicus, UniProt Q05941)
Construct: Cerebral cortices from male Wistar rats (150-250 g) are homogenised; from tissue; host or cells: rat cerebral cortex membranes (male Wistar)
Sequence (Q05941 23-502): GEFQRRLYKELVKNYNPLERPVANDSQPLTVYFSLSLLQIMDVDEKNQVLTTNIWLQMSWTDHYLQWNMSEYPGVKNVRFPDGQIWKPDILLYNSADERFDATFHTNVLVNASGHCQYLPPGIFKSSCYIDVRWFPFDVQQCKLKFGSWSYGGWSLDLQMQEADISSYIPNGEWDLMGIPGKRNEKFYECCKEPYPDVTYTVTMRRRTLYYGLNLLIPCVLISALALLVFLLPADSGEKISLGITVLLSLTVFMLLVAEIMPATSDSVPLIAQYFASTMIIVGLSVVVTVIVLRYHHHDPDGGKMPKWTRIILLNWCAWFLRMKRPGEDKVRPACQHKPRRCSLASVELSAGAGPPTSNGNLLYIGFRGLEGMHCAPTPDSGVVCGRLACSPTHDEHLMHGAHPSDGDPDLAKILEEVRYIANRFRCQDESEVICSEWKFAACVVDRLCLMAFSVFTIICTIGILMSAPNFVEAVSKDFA
Experiment: biochemical
Assay type: binding
Settings: read-out: Assay III IC50
endpoint-label: IC50 (µM)
API: value field is a number in µM; no unit string.

// worked examples, IC50 included
INSERT INTO measurements (compound, system_name, quantitative_result) VALUES
  ('CC=COc1cncc(N2CCC3CCC(C2)N3C)c1 (stereo not shown)', 'nAChR formed by the α7 subunit isoform (Rattus norvegicus, UniProt Q05941)', 10),
  ('Clc1ccc(N2CCC3CCC(C2)N3)nn1 (stereo not shown)', 'nAChR formed by the α7 subunit isoform (Rattus norvegicus, UniProt Q05941)', 1.4),
  ('CCOc1cncc(N2CCC3CCC(C2)N3)c1.O=C(O)/C=C/C(=O)O (stereo not shown)', 'nAChR formed by the α7 subunit isoform (Rattus norvegicus, UniProt Q05941)', 6.2);

Consider the compound shown here: CC=COc1cncc(N2C3CCNCC2CC3)c1 (stereo not shown) What is its recorded IC50?
2.7

Consider the compound shown here: C=COc1cncc(N2CCC3CCC(C2)N3C)c1 (stereo not shown) What is its recorded IC50?
5.8

Consider the compound shown here: CCOc1cncc(N2CCC3CCC(C2)N3C)c1 (stereo not shown) What is its recorded IC50?
8.1

Consider the compound shown here: COc1cncc(N2C3CCNCC2CC3)c1 (stereo not shown) What is its recorded IC50?
3

====

Biological target: nAChR formed by the α7 subunit isoform (Rattus norvegicus)
Construct: Cerebral cortices from male Wistar rats (150-250 g) are homogenised
Experiment: biochemical
Settings: read-out: Assay III IC50
Listing of recorded IC50 by entry.
API: value field is a number in µM; no unit string.

INSERT INTO assay_data (compound, system_name, quantitative_result) VALUES
  ('CCOc1cncc(N2C3CCNCC2CC3)c1 (stereo not shown)', 'nAChR formed by the α7 subunit isoform (Rattus norvegicus)', 2.7),
  ('C=COc1cncc(N2CCC3CCC(C2)N3)c1.O=C(O)/C=C/C(=O)O (stereo not shown)', 'nAChR formed by the α7 subunit isoform (Rattus norvegicus)', 1.5),
  ('CN1C2CCC1CN(c1ccc(Cl)nn1)CC2 (stereo not shown)', 'nAChR formed by the α7 subunit isoform (Rattus norvegicus)', 10);

Consider the compound shown here: CC=COc1cncc(N2CCC3CCC(C2)N3)c1 (stereo not shown) What is its recorded IC50?
1.8
